System: human recombinant KDM1A/CoREST protein (Homo sapiens, UniProt O60341)
Assay overview: Assay of enzyme inhibition of KDM1A (LSD1), TR-FRET
pIC50: −log10 of the molar value. Counter-ions that a name gives are not always drawn.
Value type: pIC50

INSERT INTO results (molecule, value_type, recorded_result) VALUES
  ('Cn1c(C(=O)Nc2cccc(COc3ccc(OC4CCCNC4)cc3)c2)cc2sccc21 (stereo not drawn)', 'pIC50', '> 5.00'),
  ('Cn1c(C(=O)Nc2cccc(COc3ccc(O[C@@H]4C[C@H]5CC[C@@H](C4)N5)cc3)c2)cc2sccc21', 'pIC50', '> 5.00'),
  ('COCc1cccc(NC(=O)c2cc3sccc3n2C)c1COc1ccc(OC2CCCNCC2)cc1 (stereo not drawn) [Example 44, hydrochloride]', 'pIC50', '> 5.00'),
  ('Cn1c(C(=O)Nc2ccccc2COc2ccc(OC3CCCNCC3)cc2)cc2sccc21 (stereo not drawn) [Example 7, hydrochloride]', 'pIC50', '> 5.00'),
  ('Cn1c(C(=O)Nc2ccccc2COc2ccc(OC3CCNCC3)cc2)cc2sccc21', 'pIC50', '> 5.00'),
  ('COCc1cccc(NC(=O)c2cc3sccc3n2C)c1COc1ccc(OC2CCNCC2)cc1 [Example 43, hydrochloride]', 'pIC50', '> 5.00'),
  ('Cn1c(C(=O)Nc2ccccc2COc2ccc(O[C@H]3CC[C@@H](N)CC3)cc2)cc2sccc21', 'pIC50', '> 5.00'),
  ('CN1CCCC(COc2cccc(NC(=O)c3cc4sccc4n3C)c2)C1 (stereo not drawn)', 'pIC50', '> 5.00'),
  ('CCn1c(C(=O)Nc2ccccc2COc2cccc(OC3CCNCC3)c2)cc2ccsc21', 'pIC50', '> 5.00'),
  ('Cn1c(C(=O)Nc2cccc(CCc3ccc(OC4CCNCC4)cc3)c2)cc2sccc21 [Example 62, hydrochloride]', 'pIC50', '> 5.00'),
  ('Cn1c(C(=O)Nc2ccccc2COc2ccc(OCC3CCNCC3)cc2)cc2sccc21', 'pIC50', '> 5.00'),
  ('Cn1c(C(=O)Nc2ccccc2COc2ccc(CNC(=N)N)cc2)cc2sccc21', 'pIC50', '> 5.00');
